These entries and their values trace back to paper PMC6982702.

Recorded log10(IC50 at 24 h) values for a group of compounds are listed next.
# test-description: MTT cytotoxicity assay
# Format: cell-based
# experimental-parameters: human, HEK293 cells (method text: HEK293T), 24 h exposure
Please note: log10 values; quantity IC50 at 24 h; unit µM.

smiles_str=O=C(/C=C/c1ccc(O)cc1)OCCOc1cc(O)c2c(=O)cc(-c3ccccc3)oc2c1 assay_result=1.45
smiles_str=O=C(/C=C/c1ccc(O)cc1)Oc1cc(O)c2c(=O)cc(-c3ccc(O)c(O)c3)oc2c1 assay_result=0.62
smiles_str=CC(C)(C)c1ccc(/C=C/C(=O)OCCOc2cc(O)c3c(=O)cc(-c4ccc(O)c(O)c4)oc3c2)cc1 assay_result=1.31
smiles_str=O=C(/C=C/c1ccc([N+](=O)[O-])cc1)OCCOc1cc(O)c2c(=O)cc(-c3ccc(O)c(O)c3)oc2c1 assay_result=1.34
smiles_str=O=C(/C=C/C1CCCCC1)OCCOc1cc(O)c2c(=O)cc(-c3ccc(O)c(O)c3)oc2c1 assay_result=1.16
smiles_str=O=C(/C=C/c1ccc(Cl)cc1)OCCOc1cc(O)c2c(=O)cc(-c3ccc(O)c(O)c3)oc2c1 assay_result=1.00
smiles_str=O=C(CCc1ccc(O)cc1)OCCOc1cc(O)c2c(=O)cc(-c3ccc(O)c(O)c3)oc2c1 assay_result=1.95
smiles_str=O=C(OCCOc1cc(O)c2c(=O)cc(-c3ccc(O)c(O)c3)oc2c1)c1ccc(O)cc1 assay_result=1.01
smiles_str=O=C(/C=C/c1ccoc1)OCCOc1cc(O)c2c(=O)cc(-c3ccc(O)c(O)c3)oc2c1 assay_result=0.98
smiles_str=O=c1cc(-c2ccc(O)c(O)c2)oc2cc(O)cc(O)c12 assay_result=1.60

Continue with the compound presented below.
Q: Could you please provide reported log10(IC50 at 24 h) for O=C(/C=C/c1ccc(F)cc1)OCCOc1cc(O)c2c(=O)cc(-c3ccc(O)c(O)c3)oc2c1 ? Thanks!
Ans: 1.23
